Each entry below lists one item and its recorded pEC50 value.
target under test: GLP-1R (Homo sapiens, UniProt P43220)
Construct: host or cells: GLP-1R CRE-bla CHO-K1 cells
Sequence (P43220 24-463): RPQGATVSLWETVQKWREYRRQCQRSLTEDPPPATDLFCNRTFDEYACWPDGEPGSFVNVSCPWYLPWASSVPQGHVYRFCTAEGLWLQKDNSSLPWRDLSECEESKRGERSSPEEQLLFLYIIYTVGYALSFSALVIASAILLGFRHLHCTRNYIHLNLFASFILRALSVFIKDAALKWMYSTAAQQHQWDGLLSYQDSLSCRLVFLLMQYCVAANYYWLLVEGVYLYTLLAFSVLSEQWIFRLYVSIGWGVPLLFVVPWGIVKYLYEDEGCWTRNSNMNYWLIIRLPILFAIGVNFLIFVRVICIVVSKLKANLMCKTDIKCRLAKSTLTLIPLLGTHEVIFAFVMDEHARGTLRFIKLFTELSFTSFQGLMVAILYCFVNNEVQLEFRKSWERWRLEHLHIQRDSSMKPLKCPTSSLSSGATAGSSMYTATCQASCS
Sequence (P01275 100-127 partner limits assumed): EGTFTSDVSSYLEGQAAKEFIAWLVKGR
assay text: EC20 GLP-1(9-36) PAM cAMP assay: dose response of compound in the presence of fixed concentration of GLP-1(9-36)
Type: cell-based
measurement setup: dose response of compound in presence of fixed concentration of GLP-1(9-36), GLP-1R CRE-bla CHO-K1 cells, read-out: EC20 GLP-1(9-36) PAM EC50
pEC50: −log10 of the molar value.

INPUT: What reported pEC50 corresponds to CC(C)(C)c1ccc(C(=O)N[C@@H](Cc2ccc(-c3ncc(-c4ccc([C@H]5CC[C@@H](C(C)(C)C)CC5)cc4)cn3)cc2)C(=O)N2CC(C(=O)O)C2)s1 [Compound 1182] on GLP-1R (Homo sapiens, UniProt P43220)?
OUTPUT: > 6.10

INPUT: Lookup: pEC50 / GLP-1R (Homo sapiens, UniProt P43220) / CC(C)Oc1cc(-c2cnc(-c3ccc(C[C@H](NC(=O)c4ccc(C(C)(C)C)s4)C(=O)N[C@H](C)C(=O)O)cc3)nc2)cc(Cl)c1OC(C)C [Compound 1017]
OUTPUT: 5.30 to 5.60

INPUT: # get_value(readout= pEC50, system= GLP-1R (Homo sapiens, UniProt P43220)) for CCCCCCCOc1ccc(-c2cnc(-c3ccc(C[C@H](NC(=O)c4ccc(C(C)(C)C)cc4)C(=O)NC(Cc4c[nH]c5ncccc45)C(=O)O)cc3)nc2)cc1 (some centres unmarked) [Compound 584]
OUTPUT: 5.60 to 6.10

INPUT: Write down the reported pEC50 of CC(C)(C)c1ccc(C(=O)N[C@@H](Cc2ccc(-c3ncc(-c4ccc([C@H]5CC[C@H](C(C)(C)C)CC5)cc4)cn3)cc2)C(=O)N2CC(C(=O)O)C2)s1 [Compound 1181] , test system: GLP-1R (Homo sapiens, UniProt P43220).
OUTPUT: 5.60 to 6.10

INPUT: Provide the documented pEC50 with GLP-1R (Homo sapiens, UniProt P43220) as the system for CCCCCCCOc1ccc(-c2cnc(-c3ccc(C[C@H](NC(=O)c4ccc(C(C)(C)C)s4)C(=O)N[C@@H](C(=O)O)C(C)c4ccccc4)cc3)nc2)cc1 (some centres unmarked) [Compound 898]
OUTPUT: 5.30 to 5.60

INPUT: Request - read-out pEC50 | tested on GLP-1R (Homo sapiens, UniProt P43220) | compound CCCCCCCOc1ccc(-c2cnc(-c3ccc(CC(NC(=O)c4ccc(C(C)(C)C)s4)C(=O)N[C@@H](Cc4ccccc4)C(=O)O)cc3)nc2)cc1 (some centres unmarked) [Compound 415]
OUTPUT: > 6.10

INPUT: Item: CCCCCCCOc1ccc(-c2cnc(-c3ccc(C[C@H](NC(=O)c4ccc(C(C)(C)C)cc4)C(=O)N[C@H](CC)C(=O)O)cc3)nc2)cc1 [Compound 498] Test system: GLP-1R (Homo sapiens, UniProt P43220) Read-out: pEC50 Value: ?
OUTPUT: 5.60 to 6.10

INPUT: Report pEC50 for CCCCCCCOc1ccc(-c2cnc(-c3ccc(C[C@H](NC(=O)c4ccc(C(C)(C)C)s4)C(=O)NCC4(C(=O)OC)CCNCC4)cc3)nc2)cc1 [Compound 605] tested on GLP-1R (Homo sapiens, UniProt P43220).
OUTPUT: > 6.10

INPUT: Observed pEC50 on GLP-1R (Homo sapiens, UniProt P43220) for CCCCCCCOc1ccc(-c2cnc(-c3ccc(C[C@H](NC(=O)c4ccc(C(C)(C)C)cc4)C(=O)NC(Cc4ccc(OC)cc4)C(=O)O)cc3)nc2)cc1 (some centres unmarked) [Compound 568] , please.
OUTPUT: > 6.10

INPUT: # returns recorded pEC50 (system: GLP-1R (Homo sapiens, UniProt P43220)) for CCCCOc1ccc(-c2cnc(-c3ccc(C[C@H](NC(=O)c4ccc(C(C)(C)C)s4)C(=O)N[C@H](C)C(=O)O)cc3)nc2)cc1F [Compound 1044]
OUTPUT: 5.30 to 5.60

INPUT: // map CC[C@H]1CC[C@H](c2ccc(-c3cnc(-c4ccc(C[C@H](NC(=O)c5ccc(C(C)(C)C)s5)C(=O)N5CC(C(=O)O)C5)cc4)nc3)cc2)CC1 [Compound 1057] to recorded pEC50 (system: GLP-1R (Homo sapiens, UniProt P43220))
OUTPUT: > 6.10

====

target under test: GLP-1R (Homo sapiens)
Construct: host or cells: GLP-1R CRE-bla CHO-K1 cells
assay text: EC20 GLP-1(9-36) PAM cAMP assay: dose response of compound in the presence of fixed concentration of GLP-1(9-36)
Type: cell-based
measurement setup: dose response of compound in presence of fixed concentration of GLP-1(9-36), GLP-1R CRE-bla CHO-K1 cells, read-out: EC20 GLP-1(9-36) PAM EC50
Reported EC50 values follow for various compounds

Below, each entry is followed by its recorded EC50 result.
CCCCCCCOc1ccc(-c2cnc(-c3ccc(C[C@H](NC(=O)c4ccc(C(C)(C)C)cc4)C(=O)NC(CC(=O)O)c4cccnc4)cc3)nc2)cc1 (stereo partly drawn) [Compound 571]: 800 to 2500 nM
C[C@@H](NC(=O)[C@H](Cc1ccc(-c2ncc(-c3ccc([C@H]4CC[C@H](C(C)(C)C)CC4)cc3)cn2)cc1)NC(=O)c1ccc(C(C)(C)C)s1)C(=O)O [Compound 1143]: < 800 nM
CCCCCCCOc1ccc(-c2cnc(-c3ccc(C[C@H](NC(=O)c4ccc(C5CC5)cc4)C(=O)N[C@H](C)C(=O)O)cc3)nc2)cc1 [Compound 827]: 800 to 2500 nM
CCCCCCCOc1ccc(-c2cnc(-c3ccc(C[C@H](NC(=O)c4ccc(C(C)(C)C)cc4)C(=O)N[C@@H](CO)C(=O)O)cc3)nc2)cc1 [Compound 418]: < 800 nM
CCCCCCCOc1ccc(-c2cnc(-c3ccc(C[C@H](NC(=O)c4ccc(C(C)(C)C)cc4)C(=O)N[C@@H](Cc4ccccn4)C(=O)O)cc3)nc2)cc1 [Compound 542]: < 800 nM

INPUT: Need EC50, item CCc1ccc(/C=C/c2cnc(-c3ccc(C[C@H](NC(=O)c4ccc(C(C)(C)C)s4)C(=O)N4CCC[C@H]4C(=O)O)cc3)nc2)cc1 [Compound 1126]
OUTPUT: 800 to 2500 nM

====

target under test: GLP-1R (Homo sapiens, UniProt P43220)
Construct: host or cells: GLP-1R CRE-bla CHO-K1 cells
assay text: EC20 GLP-1(9-36) PAM cAMP assay: dose response of compound in the presence of fixed concentration of GLP-1(9-36)
Format: cell-based
measurement setup: dose response of compound in presence of fixed concentration of GLP-1(9-36), GLP-1R CRE-bla CHO-K1 cells, read-out: EC20 GLP-1(9-36) PAM EC50
pEC50: −log10 of the molar value.
Listed compounds paired with reported pEC50

Known results for compounds:
CCCCCCCc1ccc(-c2cnc(-c3ccc(C[C@H](NC(=O)c4ccc(C(C)(C)C)cc4)C(=O)N[C@H](C)C(=O)O)cc3)nc2)cc1 [Compound 724]: 5.60 to 6.10
CCCCCCCOc1ccc(-c2cnc(-c3ccc(C[C@H](NC(=O)c4ccc(C(C)(C)C)s4)C(=O)N[C@@H](C(=O)O)[C@H](O)c4ccccc4)cc3)nc2)cc1 [Compound 666]: 5.60 to 6.10
CC(C)N(C(=O)c1ccc(-c2cnc(-c3ccc(C[C@H](NC(=O)c4ccc(C(C)(C)C)s4)C(=O)N[C@H](C)C(=O)O)cc3)nc2)cc1)C(C)C [Compound 1028]: 5.30 to 5.60
C[C@@H](NC(=O)[C@H](Cc1ccc(-c2ncc(-c3ccc(-c4ccc(C(F)(F)F)cc4)c(F)c3)cn2)cc1)NC(=O)c1ccc(C(C)(C)C)s1)C(=O)O [Compound 1140]: > 6.10
CCCCCCCOc1ccc(-c2cnc(-c3ccc(C[C@H](NC(=O)c4ccc(C(C)(C)C)cc4)C(=O)N[C@@H](CC(=O)O)C(=O)NC)cc3)nc2)cc1 [Compound 580]: > 6.10
C[C@@H](NC(=O)[C@H](Cc1ccc(-c2ncc(-c3ccc(-c4cccc(F)c4)cc3)cn2)cc1)NC(=O)c1ccc(C(C)(C)C)s1)C(=O)O [Compound 1134]: 5.60 to 6.10
CC(C)(C)Cc1noc(-c2cnc(-c3ccc(C[C@H](NC(=O)c4ccc(C(C)(C)C)cc4)C(=O)NCCC(=O)O)cc3)nc2)n1 [Compound 744]: 5.00 to 5.30
CC(C)(C)c1ccc(C(=O)N[C@@H](Cc2ccc(-c3ncc(-c4ccc(OCC(F)(F)F)cc4)cn3)cc2)C(=O)NC(C(=O)O)C(O)c2ccccc2)s1 (some centres unmarked) [Compound 928]: 5.30 to 5.60

INPUT: Query for GLP-1R (Homo sapiens, UniProt P43220): what pEC50 does the record show for CCCCCCCOc1ccc(-c2cnc(-c3ccc(C[C@H](NC(=O)c4ccc(C(C)(C)C)s4)C(=O)NC[C@H]4CCNC4)cc3)nc2)cc1 [Compound 438] ?
OUTPUT: 5.00 to 5.30

INPUT: Find the measured pEC50: item COc1ccc(-c2cnc(-c3ccc(C[C@H](NC(=O)c4ccc(C(C)(C)C)s4)C(=O)N[C@H](C)C(=O)O)cc3)nc2)cc1C12CC3CC(CC(C3)C1)C2 [Compound 1054] , target or system GLP-1R (Homo sapiens, UniProt P43220).
OUTPUT: 5.30 to 5.60

INPUT: Param readout = pEC50; param system = GLP-1R (Homo sapiens, UniProt P43220); param query = CCOc1ccc(-c2cnc(-c3ccc(C[C@H](NC(=O)c4ccc(C(C)(C)C)cc4)C(=O)N[C@H](C)C(=O)O)cc3)nc2)cc1 [Compound 721] ; response: value
OUTPUT: 5.60 to 6.10
